Experiment: Mean residence time infinity in mouse at 2 mg/kg, iv administered as single dose
Type: ADME, organism-based
Settings: in vivo

query.smiles: CCc1ccc(Cc2cc3c(cc2C)CO[C@]32O[C@H](C)[C@@H](O)[C@H](O)[C@H]2O)s1
MRT inf / h: 13.1

---

Assay: AUClast in mouse at 2 mg/kg, iv administered as single dose
Assay type: ADME, organism-based
Set-up: dose 2 mg/kg, route intravenous, time 0 - last
Details: in vivo

query.smiles: CCc1ccc(Cc2cc3c(cc2C)CO[C@]32O[C@H](C)[C@@H](O)[C@H](O)[C@H]2O)s1
AUC(0-t), ng·h/mL: 1130

---

Species on record: Homo sapiens
Test: Selectivity ratio of IC50 for human full length SGLT1 to IC50 for human full length SGLT2
# Ratio IC50 annotations

query.smiles: COC(=O)Cc1ccc(Cc2cc3c(cc2Cl)CO[C@]32O[C@H](C)[C@@H](O)[C@H](O)[C@H]2O)s1
Ratio IC50: 151
--
query.smiles: CCCOCCc1ccc(Cc2cc3c(cc2Cl)CO[C@]32O[C@H](C)[C@@H](O)[C@H](O)[C@H]2O)s1
Ratio IC50: 117
--
query.smiles: C[C@H]1O[C@]2(OCc3cc(Cl)c(Cc4ccc(Cl)s4)cc32)[C@H](O)[C@@H](O)[C@@H]1O
Ratio IC50: 30

---

Biological target: Sodium/glucose cotransporter 1 (Homo sapiens)
Sequence (P13866 whole entry): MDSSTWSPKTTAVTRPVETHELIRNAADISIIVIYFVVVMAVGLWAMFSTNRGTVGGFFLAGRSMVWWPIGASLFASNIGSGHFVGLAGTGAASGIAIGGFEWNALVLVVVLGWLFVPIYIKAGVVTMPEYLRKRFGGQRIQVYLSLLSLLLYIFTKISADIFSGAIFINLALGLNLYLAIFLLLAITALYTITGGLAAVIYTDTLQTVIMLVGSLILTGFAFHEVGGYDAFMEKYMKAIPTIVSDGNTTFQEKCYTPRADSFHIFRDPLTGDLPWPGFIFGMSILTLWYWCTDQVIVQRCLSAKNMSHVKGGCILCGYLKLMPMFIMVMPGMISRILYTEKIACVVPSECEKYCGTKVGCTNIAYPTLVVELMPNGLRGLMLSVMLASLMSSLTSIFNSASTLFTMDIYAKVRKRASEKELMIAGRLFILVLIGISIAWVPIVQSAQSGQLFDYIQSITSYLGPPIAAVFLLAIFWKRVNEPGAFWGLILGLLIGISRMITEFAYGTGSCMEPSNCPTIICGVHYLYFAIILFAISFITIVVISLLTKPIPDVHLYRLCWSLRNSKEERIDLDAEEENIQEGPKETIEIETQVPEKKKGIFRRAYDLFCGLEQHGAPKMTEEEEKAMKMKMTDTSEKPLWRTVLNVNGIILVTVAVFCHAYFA
Assay: Inhibition of human full length SGLT1 expressed in NIH3T3 cells measured after 1 hr in presence of [14C]-methyl-alpha -D-glucopyranoside by scintillation counter method

query.smiles: COCCc1ccc(Cc2cc3c(cc2Cl)CO[C@]32O[C@H](C)[C@@H](O)[C@H](O)[C@H]2O)s1
IC50 / µM: 4.7

query.smiles: CCOCCc1ccc(Cc2cc3c(cc2Cl)CO[C@]32O[C@H](C)[C@@H](O)[C@H](O)[C@H]2O)s1
IC50 / µM: 4.8

query.smiles: COC(=O)c1ccc(Cc2cc3c(cc2Cl)CO[C@]32O[C@H](C)[C@@H](O)[C@H](O)[C@H]2O)s1
IC50 / µM: 3

query.smiles: CCOc1ccc(Cc2cc3c(cc2Cl)CO[C@]32O[C@H](C)[C@@H](O)[C@H](O)[C@H]2O)cc1
IC50 / µM: 0.5

---

Target: Sodium/glucose cotransporter 2 (Homo sapiens, UniProt P31639)
Sequence (P31639 whole entry): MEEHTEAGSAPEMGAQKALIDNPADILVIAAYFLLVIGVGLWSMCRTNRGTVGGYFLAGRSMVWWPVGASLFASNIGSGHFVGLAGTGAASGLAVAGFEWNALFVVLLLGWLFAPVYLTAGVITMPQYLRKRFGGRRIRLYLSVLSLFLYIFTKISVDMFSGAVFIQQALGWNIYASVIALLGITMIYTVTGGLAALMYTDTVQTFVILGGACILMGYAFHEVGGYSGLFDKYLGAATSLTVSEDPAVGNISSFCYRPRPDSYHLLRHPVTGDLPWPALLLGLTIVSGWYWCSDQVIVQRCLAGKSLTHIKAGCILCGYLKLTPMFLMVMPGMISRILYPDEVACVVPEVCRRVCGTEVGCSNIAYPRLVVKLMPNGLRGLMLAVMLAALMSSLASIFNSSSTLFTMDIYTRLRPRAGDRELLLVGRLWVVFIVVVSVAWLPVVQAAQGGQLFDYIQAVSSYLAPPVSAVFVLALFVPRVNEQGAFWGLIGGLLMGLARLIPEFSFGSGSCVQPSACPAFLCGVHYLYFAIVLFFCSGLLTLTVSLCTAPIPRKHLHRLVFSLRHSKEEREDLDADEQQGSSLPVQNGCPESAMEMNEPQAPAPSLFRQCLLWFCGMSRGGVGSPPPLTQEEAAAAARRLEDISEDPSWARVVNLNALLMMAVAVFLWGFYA
Test: Inhibition of human full length SGLT2 expressed in NIH3T3 cells measured after 1 hr in presence of [14C]-methyl-alpha -D-glucopyranoside by scintillation counter method
pIC50: −log10 of the molar value.
# pIC50 annotations

query.smiles: C[C@H]1O[C@]2(OCc3ccc(Cc4ccc(Cl)s4)cc32)[C@H](O)[C@@H](O)[C@@H]1O
pIC50: < 7.00
--
query.smiles: CCCc1ccc(Cc2ccc3c(c2)[C@]2(OC3)O[C@H](C)[C@@H](O)[C@H](O)[C@H]2O)cc1
pIC50: < 7.00
--
query.smiles: C[C@H]1O[C@]2(OCc3cc(Cl)c(Cc4ccc(-c5ccc(F)cc5)s4)cc32)[C@H](O)[C@@H](O)[C@@H]1O
pIC50: < 7.00
--
query.smiles: CCCc1ccc(Cc2ccc3c(c2)[C@]2(OC3)O[C@H](C)[C@@H](O)[C@H](O)[C@H]2O)s1
pIC50: < 7.00
--
query.smiles: Cc1ccc(Cc2ccc3c(c2)[C@]2(OC3)O[C@H](C)[C@@H](O)[C@H](O)[C@H]2O)s1
pIC50: < 7.00
--
query.smiles: COc1ccc(Cc2ccc3c(c2)[C@]2(OC3)O[C@H](C)[C@@H](O)[C@H](O)[C@H]2O)cc1
pIC50: < 7.00
--
query.smiles: CCc1ccc(Cc2ccc3c(c2)[C@]2(OC3)O[C@H](C)[C@@H](O)[C@H](O)[C@H]2O)s1
pIC50: < 7.00
--
query.smiles: Cc1ccc(Cc2ccc3c(c2)[C@]2(OC3)O[C@H](C)[C@@H](O)[C@H](O)[C@H]2O)cc1
pIC50: < 7.00
--
query.smiles: C[C@H]1O[C@]2(OCc3ccc(Cc4ccc(-c5ccccc5)s4)cc32)[C@H](O)[C@@H](O)[C@@H]1O
pIC50: < 7.00
--
query.smiles: C[C@H]1O[C@]2(OCc3ccc(Cc4ccc(-c5ccccn5)s4)cc32)[C@H](O)[C@@H](O)[C@@H]1O
pIC50: < 7.00

Where do these numbers come from? They come from ChEMBL document CHEMBL4364314.
